biological target: hT40 (Homo sapiens, UniProt P10636); assay: Biacore X100 SPR, scAb captured via anti-HuCk, hT40 as analyte; assay type: binding; details: '3a' and '3b' scAbs, Table 25, hT40
Sequence (P10636 1-441 isoform P10636-8): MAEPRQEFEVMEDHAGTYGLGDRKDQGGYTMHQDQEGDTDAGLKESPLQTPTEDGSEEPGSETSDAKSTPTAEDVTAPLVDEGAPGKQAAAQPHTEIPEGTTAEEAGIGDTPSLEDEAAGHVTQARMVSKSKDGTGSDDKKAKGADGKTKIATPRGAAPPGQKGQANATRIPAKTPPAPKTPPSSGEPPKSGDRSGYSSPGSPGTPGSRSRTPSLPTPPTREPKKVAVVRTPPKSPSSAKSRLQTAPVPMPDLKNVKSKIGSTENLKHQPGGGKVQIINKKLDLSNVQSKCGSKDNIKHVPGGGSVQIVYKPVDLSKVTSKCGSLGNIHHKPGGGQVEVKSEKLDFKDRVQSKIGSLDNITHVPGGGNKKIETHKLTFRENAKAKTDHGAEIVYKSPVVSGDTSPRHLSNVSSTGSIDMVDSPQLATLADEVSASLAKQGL
Below: a set of entries, each annotated with reported ka.
Number first, unit second: that is the form wanted.

Recorded results for 2 molecules are shown here.
3aB7: anti-tau clone, SEQ ID NO: 420 (protein, 3aB7 amino acid sequence) scFv: QVQLQESGPSLVKPSQTLSLTCTVSGFSLTSNGVGWVRQAPGKVPEWVGDKSSAGKTYGNPALKSRLSITRDTSKSQVSLSLSSVTTEDTAVYYCVRCRDGGVTYGYDVDYWGPGLLVTVSSEGKSSGASGESKVDDQAVLTQPSSVSKSLGQSVSITCSGSSSNVGYGDVVSWFQQFPGSAPKLLIFGTTTRASGVPDRFSGSRSGNAATLTINSLQAEDEADYYCASFDSDSGGIAGSGTRLTVLG = 207200 M⁻¹ s⁻¹
3aA6: anti-tau clone, sequence in b345 (protein, 3aA6 amino acid sequence) scFv: QVRLQESGSSLVKPSQTLSLVCTVSGFPLTSNAVGWVRQAPGKAPEWLGLIDIDGDTAYNPALESRLSITRDTSKSQVSLSLSSVAIEDTAVYYCARHYDKWGYADSIDYWGPGLLVTVSSEGKSSGASGESKVDDQALLTQPSSVFGSLGQRVSITCSGSSSNVGYGDYVGWYQQVPGSAPKLLIYDATTRASGVPDRFSGSRSGNTATLTISSLQAEDEADYYCASYQNERSGVFGSGTRLTVLG = 19000 M⁻¹ s⁻¹

Consider the molecule 3bG4: anti-tau clone, SEQ ID NO: 425 (protein, 3bG4 amino acid sequence) scFv: QVQLQESGPSLVKPSQTLSLTCTISGFSLISNGVGWVRQAPGKVPEWVGDIASSGKAYSNPALKSRLSITRDTSKSQVSLSLRSVTTEDTAVYYCVRCRDGGVTYGYDIDYWGPGLLVTVSSEGKSSGASGESKVDDQAVLTQPSSVSKSLGQSVSITCSGSTSNVGSGNDVSWFQQVPGSAPKLLFYGATNRASGVPDRFSGSRSGNTATLTITSLQAEDEADYYCGSYDSNSGGIFGSGTRLTVLG and give its measured ka.
6.669e+06 M⁻¹ s⁻¹
